test system: M. mycetomatis strain mm55; details: primary screen, metabolic activity vs growth control; 96 h, 2 µM; inhibitor
Where a name gives a salt, the structure may show the parent alone. The whole screen tested about 5,300 compounds, of which about 130 (2.5%) showed an effect of 50% or more. Only a selection was taken, and strong results are over-represented in it overall.
Parameter class (string): assigned from measured % viability. Ranges: bin 1 (below 70%), bin 2 (70% to below 90%), bin 3 (90% or more)

Known results for compounds:
N[C@@H](CC(=O)N1CCn2c(nnc2C(F)(F)F)C1)Cc1cc(F)c(F)cc1F [ONC0004045, sitagliptin phosphate]; bin 3
CC[C@@]1(C2O[C@@H](C3O[C@@](O)(CO)[C@H](C)C[C@@H]3C)C[C@@H]2C)CC[C@H]([C@]2(C)CC[C@]3(C[C@H](O)[C@@H](C)[C@@H]([C@@H](C)[C@@H](OC)[C@H](C)C(=O)O)O3)O2)O1 (some centres unmarked) [ONC0004087, monensin sodium]; bin 3
CCCCCCCCCCCCCCOS(=O)(=O)O [ONC0003317, sodium tetradecyl sulfate]; bin 2
O=C(O)CCn1c2c(c3ccccc31)C[C@H](NS(=O)(=O)c1ccc(F)cc1)CC2; bin 3
N[C@@H](CC(=O)N1CCn2c(nnc2C(F)(F)F)C1)Cc1n[nH]c2c(F)c(F)ccc12 [ONC0001660, pk44 phosphate]; bin 1
O=C(O)Cc1ccc(CCNS(=O)(=O)c2ccc(Cl)cc2)cc1; bin 2

Consider the record given below.
Looking at Nc1nonc1C(=NO)Nc1ccc(F)c(Cl)c1 , which class would you pick?
bin 3
